Values compiled from the supplement of paper PMC9170038.

Tested on: K4 kissing-loop RNA reporter;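 further: bound reporter read as fluorescence of individual clusters on recovered sequencing chips by microscopy, with normalized cluster intensities fitted with a binding model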
experiment description: apparent KD of K4 kissing-loop reporter; higher = weaker reporter binding
measurement conditions: Eterna round: R107; input ligand: none
assay endpoint: apparent KD of K4 kissing-loop reporter
The reply should read as a number followed by its unit.

Guide cases for apparent KD of K4 kissing-loop reporter, answers given:
# sequence code, apparent KD of K4 kissing-loop reporter
records = [
    ("UUUAUAAUGUCGGCCGCCACUGGAUUAAUAUUUGUAUAAUCUAGUUCUAAGUGAUGUUUAGAGUCCAGGACCGGGACAUUUGUUA [#09 K4 Tryptophan B Exclusion]", "300 nM"),
    ("UGUAUGUGAUUUGAUACCAGACCAGGUGGAGGAAUCUGAGUGAUGUUCAGGUAGGUUUGGGUCCCUUGGCAGCAAAUCGCAUACU [KL-SSTheoB18]", "149 nM"),
]

Field: apparent KD of K4 kissing-loop reporter. Fill in for each record below.
1. AGUCGCAGUGAUGUUGCGAUUCCGUUGAGGGAGGAUAUUGGUAAUACAAGAAGGCCCGGCUACGGGAGAUGUUAGCAAUAGGGCC [Exclusion FMN A GF20]
2. CGAAAUAGAACGGCCGCCACUGUAAGUCCUGACAGUAAGUGAUGUUUGAAAGAUUCGGGUAUUCGCAGGACCGGGUUCGUCAUAA [theeternabot_sameState_KL_Trp_B_13]

Result:
63 nM
1260 nM

Field: apparent KD of K4 kissing-loop reporter. Fill in for each record below.
1. UGAUAGGACAGAAGGAGCGGUAGUGAUGUUGCCAAAAGAAUAAGGUGUCAAAAGACACCCUGCCAGGUAGGUCGCUGUCCUAUCU
2. AGCAGUGAUGUUGCAUUUAUAAAGACCGAUACCAGUAUCGAUAGAUACCCUUGGCAGCGGAUUUCCGCAACGACUAGGAAACUAG [Ex Theophylline A K4 13]

Result:
144 nM
399 nM
